Tested on: Viola arvensis
protocolDetails: Test on post-emergence treatment (greenhouse pots, foliage spray)
Format: in vivo
setupConditions: triazine derivative alone, 10 g/10a, after 20 days

# molecule, unitSpec, Percent control of Viola arvensis(%)
data = [
    ("Cc1cccc(OCC(C)Nc2nc(N)nc(C(C)(C)F)n2)c1 (stereo not shown)", "%", 74),
    ("CC(Nc1nc(N)nc(C(C)(C)F)n1)c1cc2ccccc2s1 (stereo not shown)", "%", 64),
    ("Cc1cc(C)cc(OCC(C)Nc2nc(N)nc(C(C)(C)Cl)n2)c1 (stereo not shown)", "%", 78),
    ("CC(Nc1nc(N)nc(C(C)(C)F)n1)c1cc2ccccc2o1 (stereo not shown)", "%", 54),
]
